src = ChEMBL document CHEMBL5120852

Molecular target: Amyloid-beta precursor protein (Homo sapiens, UniProt P05067)
Sequence (P05067 whole entry): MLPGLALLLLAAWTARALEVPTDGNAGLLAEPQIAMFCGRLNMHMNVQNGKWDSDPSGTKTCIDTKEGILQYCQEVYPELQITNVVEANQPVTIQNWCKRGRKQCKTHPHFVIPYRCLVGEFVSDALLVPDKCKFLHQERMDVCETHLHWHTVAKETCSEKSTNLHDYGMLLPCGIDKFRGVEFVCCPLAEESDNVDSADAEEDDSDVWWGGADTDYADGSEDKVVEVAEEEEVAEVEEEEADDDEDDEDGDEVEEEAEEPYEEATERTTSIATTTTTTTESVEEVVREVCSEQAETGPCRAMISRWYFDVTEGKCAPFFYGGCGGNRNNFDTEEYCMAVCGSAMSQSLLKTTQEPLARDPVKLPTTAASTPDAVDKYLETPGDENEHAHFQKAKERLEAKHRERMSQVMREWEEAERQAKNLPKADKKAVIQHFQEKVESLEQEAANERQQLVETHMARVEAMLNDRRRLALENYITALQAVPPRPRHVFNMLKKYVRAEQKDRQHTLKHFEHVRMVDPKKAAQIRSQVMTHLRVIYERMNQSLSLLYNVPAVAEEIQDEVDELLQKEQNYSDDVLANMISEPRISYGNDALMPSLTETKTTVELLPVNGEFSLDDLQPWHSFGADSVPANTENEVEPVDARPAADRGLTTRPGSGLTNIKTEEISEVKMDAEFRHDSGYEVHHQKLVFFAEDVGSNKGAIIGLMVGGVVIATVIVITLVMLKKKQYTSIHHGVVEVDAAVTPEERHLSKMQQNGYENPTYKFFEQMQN
Experiment: Binding affinity to 5R to 22E residues of 15N-labelled amyloid beta (1 to 42) (unknown origin) expressed in Escherichia coli BL21 (DE3)-pLysS cells assessed as chemical shift perturbation by measuring dissociation constant by Chemical shift mapping NMR analysis
pKd: −log10 of the molar value.
Observation Type: pKd

INSERT INTO assay_data (substance, target_or_system, observation_type, measured_value) VALUES
  ('H-SYSTPGK-OH', 'Amyloid-beta precursor protein (Homo sapiens, UniProt P05067)', 'pKd', 3.19);
